# Test system: Cricetinae gen. sp.
# test_method_notes: Antifertility activity was determined in hamsters (two to six dose levels, 6-18 animals per group) treated subcutaneously (sc) from day 4 to day 6 of gestation.
# Type: functional, Mesocricetus auratus
Listing of recorded ED50 by entry.
State the answer as a number, implicitly in mg/kg.

See these solved cases before continuing.
CCCCC[C@H](O)/C=C/[C@H]1[C@H](O)CC(=O)[C@@H]1C/C=C\CCCC(=O)O [DINOPROSTONE]: 0.7
CCCC[C@](C)(OC)[C@H](O)/C=C/C1[C@H](O)C[C@H](O)[C@@H]1C/C=C\CCCC(=O)OC (stereo partly specified): 1.5
CCCC[C@@](C)(OC)[C@H](O)/C=C/C1[C@H](O)C[C@H](O)[C@@H]1C/C=C\CCCC(=O)OC (stereo partly specified): 0.6

Alright, here's another compound for you.
Input line: Request the reported ED50 associated with CCCCC[C@H](O)/C=C/[C@H]1[C@H](O)CC(=O)[C@@H]1CCCCCCC(=O)O [ALPROSTADIL]
Output line: 1.8

* * *

Parameter: Ratio. Scope: all listed entries.
# test_method_notes: Ratio of ED50 for diarrhea to ID50 (antisecretory activity)
# Format: functional
Enter a number only.

Below: 3 molecules and their reported Ratio.
CCCC[C@@](C)(OC)[C@H](O)/C=C/C1[C@H](O)CC(=O)[C@@H]1CCCCCCC(=O)OC (some centres undefined): 300
CCCCC[C@H](O)/C=C/[C@H]1[C@H](O)CC(=O)[C@@H]1CCCCCCC(=O)O: 36
CCCC[C@@](C)(OC)[C@H](O)/C=C/C1[C@H](O)CC(=O)[C@@H]1C/C=C\CCCC(=O)OC (some centres undefined): 105

Please turn your attention to the following entry.
Input line: Which Ratio value belongs to CCCCC[C@H](O)/C=C/[C@H]1[C@H](O)CC(=O)[C@@H]1C/C=C\CCCC(=O)O ?
Output line: 58

* * *

Listed here are molecules together with their documented ED50.
# Test system: Rattus norvegicus
# test_method_notes: Compound was evaluated for antisecretion activity using stomach perfusion test in the anesthetized rat (iv administration)
# Assay type: functional
# condition_label: read-out: ID50 (the source's name)

CCCC[C@@](C)(OC)[C@@H](O)/C=C/C1[C@H](O)CC(=O)[C@@H]1CCCCCCC(=O)OC (stereo partly specified): > 1 mg/kg
CCCC[C@@](C)(OC)[C@@H](O)/C=C/C1[C@H](O)C[C@H](O)[C@@H]1C/C=C\CCCC(=O)OC (stereo partly specified): > 2 mg/kg

Input line: # ED50 lookup, item CCCC[C@](C)(OC)[C@H](O)/C=C/C1[C@H](O)C[C@H](O)[C@@H]1C/C=C\CCCC(=O)OC (stereo partly specified)
Output line: > 2 mg/kg

Input line: # query: ED50 of entry CCCC[C@](C)(OC)[C@@H](O)/C=C/C1[C@H](O)CC(=O)[C@@H]1CCCCCCC(=O)OC (stereo in doubt; form 1)
Output line: > 3 mg/kg

Input line: Return reported ED50; argument: CCCC[C@](C)(OC)[C@@H](O)/C=C/C1[C@H](O)C[C@H](O)[C@@H]1C/C=C\CCCC(=O)OC (stereo partly specified)
Output line: > 4 mg/kg

Input line: Would you kindly share the measured ED50 for CCCC[C@@H](OC)[C@H](O)/C=C/C1[C@H](O)CC(=O)[C@@H]1C/C=C\CCCC(=O)O (stereo partly specified) ?
Output line: > 0.05 mg/kg
